For each of the molecules below, state its GI50.
Tested on: EKVX
Assay: NCI tumour cell line growth inhibition, 48 h
Calls of active or inactive are those of the source. Rule as the data show it: active = GI50 up to about 1.1 µM and inactive = higher.

Guide cases for GI50, answers given:
INSERT INTO assay_data (molecule, result) VALUES
  ('CC(C)C1(C)N=C(C(F)(F)F)c2cc(C(=O)C(F)(F)F)c3ccccc3c2N1 (stereo not given)', '4.91 µM (inactive)'),
  ('CN1CCC(CN2c3ccccc3Sc3ccccc32)CC1', '14.4 µM (inactive)');

Each of the following entries comes with a recorded value; kindly state GI50 for each.
1. CC(Cc1ccc(O)c(O)c1)C(C)Cc1ccc(O)c(O)c1 (stereo not given) [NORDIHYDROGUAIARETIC ACID]
2. Cc1cc2ccccc2n2c1nc1ccc(O)cc12
3. COc1ccc2c(c1)/C(=C\c1c(Cl)n(-c3ccccc3)c3ccccc13)C(=O)N2

output:
23.4 µM (inactive)
> 10 µM (inactive)
5.86 µM (inactive)
